Biological target: HLA-DRB1*1301 (human)
Test: competition binding
Conditions: modification not given
Hi there, I'd appreciate the recorded IC50 for every entry that follows.
One number for each entry, in µM.

Example binders with recorded IC50:
1) IPIVGIIAGLVLFGA [p53*] = 1.37
2) SQRMEPRAPWIEQEGP [p9] = 60
3) RRYLENGKETLQRTD [p36] = 11.6

Lab note: next binder to report on.
IN: Reported IC50 for HSMRYFFTSVSRPGR [p1*] : what is it?
OUT: 0.365
